Recorded pIC50 by entry
- ASSAY TARGET: TRIP8b-HCN1c40 (Homo sapiens (Human))
- Sequence (Q8IYB4 265-626): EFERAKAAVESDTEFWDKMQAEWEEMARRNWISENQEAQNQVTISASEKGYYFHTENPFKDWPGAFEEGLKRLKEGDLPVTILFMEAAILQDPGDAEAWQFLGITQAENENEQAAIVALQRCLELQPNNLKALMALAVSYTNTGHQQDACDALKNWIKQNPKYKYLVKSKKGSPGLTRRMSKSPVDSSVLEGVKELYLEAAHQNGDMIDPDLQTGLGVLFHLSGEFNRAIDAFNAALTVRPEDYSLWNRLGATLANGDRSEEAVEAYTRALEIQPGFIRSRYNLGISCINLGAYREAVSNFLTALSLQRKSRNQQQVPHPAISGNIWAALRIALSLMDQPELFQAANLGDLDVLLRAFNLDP
- PROCEDURE DETAILS: TRIP8b-HCN1c40 AlphaScreen assay
- Type: binding
- EXPERIMENTAL CONDITIONS: activity ranges; read-out: TRIP8b-HCN1c40 Alphascreen IC50 activity
pIC50: −log10 of the molar value.

• CN1CCN(Cc2cc(-c3cc(C(F)(F)F)cnc3Cl)ccc2OCC(=O)Nc2ccc(Cl)c(Cl)c2)CC1 [NUCC-0202007] = 5.30 to 5.70

Query :: What pIC50 appears in the records for this compound with TRIP8b-HCN1c40 (Homo sapiens (Human))? CN1CCN(Cc2cc(-c3c(Cl)cc(Cl)cc3Cl)ccc2OCC(=O)NCc2ccc(Cl)c(Cl)c2)CC1 [NUCC-0201969]
Result :: 5.70 to 6.00

Query :: What pIC50 appears in the records for this compound with TRIP8b-HCN1c40 (Homo sapiens (Human))? CN1CCN(Cc2cc(-c3ccc(Cl)cc3)ccc2OCC(=O)NCc2ccc(Cl)cc2)CC1 [NUCC-0201712]
Result :: 5.30 to 5.70

Query :: What pIC50 appears in the records for this compound with TRIP8b-HCN1c40 (Homo sapiens (Human))? CN1CCN(Cc2cc(-c3cc(Cl)cc(Cl)c3)ccc2OCC(=O)Nc2ccc(Cl)c(Cl)c2)CC1 [NUCC-0202003]
Result :: > 6.00

Query :: What pIC50 appears in the records for this compound with TRIP8b-HCN1c40 (Homo sapiens (Human))? CN1CCN(Cc2cc(-c3ccc(Cl)c(Cl)c3)ccc2OCC(=O)NCc2ccc(C(F)(F)F)cc2)CC1 [NUCC-0201982]
Result :: 5.30 to 5.70

Query :: What pIC50 appears in the records for this compound with TRIP8b-HCN1c40 (Homo sapiens (Human))? Cc1ccc(-c2ccc(OC(C)C(=O)NCc3ccc(Cl)cc3)c(CN3CCN(C)CC3)c2)cc1 (stereo not drawn) [NUCC-0202031]
Result :: 5.30 to 5.70

Query :: What pIC50 appears in the records for this compound with TRIP8b-HCN1c40 (Homo sapiens (Human))? COc1ccc(CNC(=O)COc2ccc(-c3ccc(C)cc3)cc2CN2CCCN(C)CC2)c(OC)c1 [NUCC-0201599]
Result :: 4.70 to 5.00

Query :: What pIC50 appears in the records for this compound with TRIP8b-HCN1c40 (Homo sapiens (Human))? Cc1ccc([C@@H](C)NC(=O)C(C)Oc2ccc(-c3ccc(Cl)c(Cl)c3)cc2CN2CCN(C)CC2)cc1 (stereo partly drawn) [NUCC-0202047]
Result :: > 6.00

Query :: What pIC50 appears in the records for this compound with TRIP8b-HCN1c40 (Homo sapiens (Human))? CN1CCN(Cc2cc(-c3cccc(Cl)c3)ccc2OCC(=O)Nc2ccc(Cl)c(Cl)c2)CC1 [NUCC-0201998]
Result :: > 6.00

Query :: What pIC50 appears in the records for this compound with TRIP8b-HCN1c40 (Homo sapiens (Human))? CC(Oc1ccc(-c2ccc([N+](=O)[O-])cc2)cc1CN1CCN(C)CC1)C(=O)NCc1ccc(Cl)cc1 (stereo not drawn) [NUCC-0202034]
Result :: 5.30 to 5.70

Query :: What pIC50 appears in the records for this compound with TRIP8b-HCN1c40 (Homo sapiens (Human))? CN1CCN(Cc2cc(-c3ccc(Cl)cc3)ccc2OCC(=O)Nc2ccc(Cl)c(Cl)c2)CC1 [NUCC-0201999]
Result :: > 6.00

Query :: What pIC50 appears in the records for this compound with TRIP8b-HCN1c40 (Homo sapiens (Human))? CN1CCN(Cc2cc(-c3ccc(Cl)c(Cl)c3)ccc2OCC(=O)Nc2ccc(Cl)cc2)CC1 [NUCC-0202016]
Result :: > 6.00

Query :: What pIC50 appears in the records for this compound with TRIP8b-HCN1c40 (Homo sapiens (Human))? COc1ccc(NC(=O)COc2ccc(-c3ccc(Cl)c(Cl)c3)cc2CN2CCN(C)CC2)cc1 [NUCC-0202019]
Result :: 5.70 to 6.00
